Values were extracted from paper PMC11822212.

Tested on: NIH-3T3 cells
assay_name: qHTS cell viability (CellTiter-Glo, 72 h; primary screen), control cell line
Format: cell-based, mouse
run_parameters: NPC library; qHTS dose-response AUC, NIH3T3 control
Counter-ions that a name gives are not always drawn.
Below is a list of entries, each paired with its recorded NIH3T3_AUC value.

- molecule: "C#C[C@]1(OC(C)=O)CC[C@H]2[C@@H]3CCC4=CC(=NO)CC[C@@H]4[C@H]3CC[C@@]21CC (mixture of isomers) [Norgestimate]"
  NIH3T3_AUC: 462.903
- molecule: "CC[N+]1(CC)CCC(=C(c2ccccc2)c2ccccc2)C1C (stereo not shown) [Prifinium bromide]"
  NIH3T3_AUC: 466.796
- molecule: "Nc1ccc(C(=O)NCC(=O)O)cc1 [Aminohippuric acid]"
  NIH3T3_AUC: 454.303
- molecule: "CC[C@@]1(O)C(=O)OCc2c1cc1n(c2=O)Cc2cc3c(CN(C)C)c(O)ccc3nc2-1 [Topotecan HCl]"
  NIH3T3_AUC: 374.778
